Test system: cardiac fibroblasts
experimental_details: Western analysis of myosin light chain phosphorylation
Type: cell-based, rat
cond: co-incubation with inhibitor, 30 minutes
metric: effect on CT-1 induced myosin light chain phosphorylation

# smiles_data, result
records = [
    ("CC(C)(C)n1nc(-c2ccc(Cl)cc2)c2c(N)ncnc21", "not"),
    ("N#C/C(=C\\c1ccc(O)c(O)c1)C(=O)NCc1ccccc1", "not"),
    ("NCCCCCCNS(=O)(=O)c1cccc2c(Cl)cccc12", "prevented"),
    ("O=S(=O)(c1cccc2c(I)cccc12)N1CCCNCC1", "prevented"),
]
